Origin of measurements: PubChem BioAssay (NCI)

- Tested on: IGROV1 ovarian
- EXPERIMENTAL DETAILS: NCI tumour cell line growth inhibition, 48 h
PARAMETER MEASURED: TGI

Enquiry: What measured TGI goes with c1ccc(Nc2nnc(CSc3nc(-c4ccccc4)c(-c4ccccc4)[nH]3)s2)cc1 ?
Return: 42.2 µM

Enquiry: What measured TGI goes with O=C(NO)c1ccc([N+](=O)[O-])cc1 ?
Return: > 100 µM

Enquiry: What measured TGI goes with Cc1ccc2c(c1)C1(C)OC(CC(N)C1O)O2 (centres undefined) ?
Return: > 100 µM

Enquiry: What measured TGI goes with O=C1CC(=O)NC(=NN2C(=O)CSC2c2ccc(Cl)c(Cl)c2)N1 (centres undefined) ?
Return: > 100 µM

Enquiry: What measured TGI goes with CC1CC2C(=O)NC(=O)C2c2[nH]c3ccccc3c21 (centres undefined) ?
Return: > 100 µM

Enquiry: What measured TGI goes with Nc1ncnc2c1ccn2C1OC2COP(=O)(O)OC2C1O (centres undefined) ?
Return: > 31 µM

Enquiry: What measured TGI goes with CCc1ccc(NCc2cc(OC)c(OC)c(OC)c2)cc1 ?
Return: > 66.2 µM

Enquiry: What measured TGI goes with Cc1cc(N2CCCCC2)nc(N(CCNc2ccnc3cc(Cl)ccc23)Cc2ccco2)n1 ?
Return: 3.65 µM

Enquiry: What measured TGI goes with COc1ccc2c(c1)CC[C@@H]1[C@@H]2CC[C@]2(C)C(=O)C3(CCCCC3)C[C@@H]12 ?
Return: > 100 µM

Enquiry: What measured TGI goes with COc1cc2nc(Cl)nc(Nc3cccc(C(=O)/C=C/c4ccccc4)c3)c2cc1OC ?
Return: 42.9 µM

Enquiry: What measured TGI goes with COc1cc(Cn2cc3c(c2)-c2oncc2CC3)cc(OC)c1OC ?
Return: 24.8 µM

Enquiry: What measured TGI goes with C=C(c1ccccc1)C1ON(C)CCc2cc(OC)c(OC)cc21 (centres undefined) ?
Return: > 100 µM

Enquiry: What measured TGI goes with COc1cc2c(/C=C3/C(=O)Nc4ccc(Cl)cc43)c(Cl)n(Cc3ccccc3)c2cc1C ?
Return: 13.4 µM

Enquiry: What measured TGI goes with CCN=C1C=CC(=C(c2ccc(N(C)C)cc2)c2ccc(N(C)C)cc2)c2ccccc21 ?
Return: 0.711 µM

Enquiry: What measured TGI goes with CN1CCc2c1nc(-c1ccccc1)c1c2N(C)CC1 ?
Return: > 100 µM

Enquiry: What measured TGI goes with Fc1ccc(-c2nc3n(c2-c2ccncc2)CCS3)cc1 ?
Return: > 25 µM

Enquiry: What measured TGI goes with CC1=CC(=O)c2c(O)cccc2C1=O ?
Return: 3.33 µM

Enquiry: What measured TGI goes with NC1CC(=O)c2cc(Cl)sc21 (centres undefined) ?
Return: > 100 µM

Enquiry: What measured TGI goes with CC1=NC(=O)C(C)(c2ccccc2)N1CCc1ccccc1 (centres undefined) ?
Return: > 100 µM
